Source listed as paper PMC6389284.

SUBJECT_OF_TEST: T1, C. elegans UNC-13 long isoform residues 1-258 bearing the K49E mutation (C. elegans, UniProt P27715 1-258, K49E)
T1 construct: UNC-13 long isoform, C. elegans, residues 1-258 with K49E; expressed from pGEX6p1; Residues left by HRV3C cleavage of the pGEX6p1 fusion are not described; also called UNC-13L residues 1-258; UNC-13L C2A domain; source: E. coli Rosetta2 (DE3), purified (glutathione sepharose, HRV3C cleavage on beads, Superdex 75)
T1 sequence (looked up): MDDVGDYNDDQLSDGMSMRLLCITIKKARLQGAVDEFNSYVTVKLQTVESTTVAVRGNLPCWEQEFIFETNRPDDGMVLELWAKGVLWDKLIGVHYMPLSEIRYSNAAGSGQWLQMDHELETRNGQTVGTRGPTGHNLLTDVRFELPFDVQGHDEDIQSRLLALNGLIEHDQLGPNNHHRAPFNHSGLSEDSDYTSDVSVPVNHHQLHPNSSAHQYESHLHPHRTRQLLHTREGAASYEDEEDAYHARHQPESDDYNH
ASSAY_COMMENT: ITC; Nano ITC (TA Instruments), 20 mM HEPES pH 7.5, 150 mM NaCl, 25°C; one site independent binding model; UNC-13L 1-258 K49E at 21 µM, UNC-10 62-121 WT at 140 µM or K77/79E at 116 µM
TEST_SETTINGS: both partners purified
READOUT: pKd
Give bare numbers, as −log10 of the molar value.

Entry C. elegans UNC-10 residues 62-121 WT (domain or fragment, UniProt Q22366 62-121, looked up, expressed from pGEX6p1; also called UNC-10/RIM ZF domain; source: E. coli Rosetta2 (DE3), grown with ZnSO4, purified (glutathione sepharose, HRV3C cleavage on beads, Superdex 75)) KLVGTQDDAICQICQKTKFADGIGHKCFYCQLRSCARCGGRAQSKNKAIWACSLCQKRQQ : reported pKd = ? 5.89
